Entry source: PubChem BioAssay (EPA / NIEHS)

Read-out: X-box binding protein 1 (XBP1), XBP1 (gene 7494)
PROTOCOL NOTES: LTEA_HepaRG_XBP1: Life Technologies and Expression Analysis (LTEA) Assay for X-box binding protein 1 (XBP1) using HepaRG (AID 2283540)
CONDITIONS USED: mRNA level, 48 h; actives raise or lower the signal
Active and inactive are the calls of the source. The calls were made as follows: active = hit-call score of the fitted dose curve at least 0.9, where 1 is the maximum; inactive = score below 0.9.
Would you mind answering with one of these outcomes? YES (active), NO (inactive)

>>> print(df.to_string())
                           molecule_smiles  class_name
0  CC(c1ccc(O)cc1)(c1ccc(O)cc1)c1ccc(O)cc1          NO
1                  Cc1cccc([N+](=O)[O-])c1          NO
2               c1cc2ccc3cccc4ccc(c1)c2c34          NO

What was the test verdict on `O=C(O)C(F)(F)C(F)(F)C(F)(F)C(F)(F)C(F)(F)C(F)(F)C(F)(F)C(F)(F)C(F)(F)F` ?
NO

What was the test verdict on `CCNc1nc(NC(C)C)nc(SC)n1` ?
NO

What was the test verdict on `ClC1=C(Cl)[C@]2(Cl)[C@@H]3[C@@H]4C[C@@H]([C@H]5O[C@@H]45)[C@@H]3[C@@]1(Cl)C2(Cl)Cl` ?
YES

What was the test verdict on `Oc1ccc(C(c2ccc(O)cc2)(C(F)(F)F)C(F)(F)F)cc1` ?
YES

What was the test verdict on `O=C(O)C(F)(F)C(F)(F)C(F)(F)C(F)(F)C(F)(F)C(F)(F)C(F)(F)C(F)(F)F` ?
NO

What was the test verdict on `O=C(NC(=O)c1cc(F)c(F)cc1Cl)Nc1cc(F)ccc1N1CCC(C(=O)O)CC1` ?
NO

What was the test verdict on `Cc1cccc(C)c1N` ?
NO
